Below: a set of entries, each annotated with reported composite z-score.
- EXPERIMENTAL_TARGET: Neurogenic locus notch homolog protein 3 (Homo sapiens)
- ASSAY_SUMMARY: NOTCH3 binders on small-molecule microarray, primary screen, biochemical, 635/667 nm fluorescence (AID 1096)
- RUN_PARAMETERS: NOTCH3 binding, 635 nm fluorescence, higher = more signal
Field format: numeric only.

Use these answered entries as a reference point.
Find the recorded composite z-score belonging to COc1ccc(C(O)C2C=CC3C(=O)NC(=O)C3N2Nc2ccccn2)cc1 (stereo not drawn) and report it. 0.49

Find the recorded composite z-score belonging to CC(C)(C)OC(=O)CC[C@]1(C(=O)O)N=C(c2ccc(OCCCO)cc2)O[C@H]1c1ccccc1N=[N+]=[N-] and report it. 0.41

Find the recorded composite z-score belonging to O=C1OCCC/C=C\[C@H]2OC34C=CCN(Cc5ccccc5)C(=O)[C@H]3N(CCCCCCO)C(=O)[C@@H]4C12 (stereo partly drawn) and report it. -0.927

Find the recorded composite z-score belonging to CC1CC/C=C\[C@H]2OC34C=CCN(c5ccc(Cl)cc5)C(=O)[C@H]3N(CCO)C(=O)[C@]4(C)C2C(=O)O1 (stereo partly drawn) and report it. 0.105

Find the recorded composite z-score belonging to COc1ccc(C(O)C2C=CC3C(=O)N(C)C(=O)C3N2N2CCCCC2)c2ccccc12 (stereo not drawn) and report it. 1.11

Find the recorded composite z-score belonging to O=C(NCc1ccccc1)[C@@]1(CCS(=O)(=O)c2ccccc2)N=C(c2ccc(OCCCO)cc2)O[C@H]1c1ccccc1 and report it. 1.06

Find the recorded composite z-score belonging to O=C1OCCC=C[C@H]2OC34C=CCN(CCN5CCOCC5)C(=O)[C@H]3N(CCCCCCO)C(=O)[C@@H]4C12 (stereo partly drawn) and report it. -0.017

***
Find the recorded composite z-score belonging to CC1CC/C=C\[C@H]2OC34C=CCN(C(C)(C)C)C(=O)[C@H]3N(CCCCCCO)C(=O)[C@@H]4C2C(=O)O1 (stereo partly drawn) and report it. 0.0452

---

- Test system: Fibrinogen (Alexa647-labelled)
- ASSAY_SUMMARY: fibrinogen binders on compound microarrays, profiling panel, artefact control for SMM control-protein annotation, biochemical, small-molecule microarray, 635/667 nm fluorescence (AID 1131);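 also: z-score merges 667 nm fluorescence with per-spot signal-to-noise over triplicate slides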
- RUN_PARAMETERS: fibrinogen-A647 binding fluorescence, higher = more signal
MEASURE: composite z-score
Field format: numeric only.

Use these answered entries as a reference point.
Find the recorded composite z-score belonging to [N-]=[N+]=Nc1ccccc1C[C@]1(C(N)=O)N=C(c2ccc(OCCCO)cc2)O[C@H]1c1ccccc1 and report it. 1.01

Find the recorded composite z-score belonging to O=C1C2C=CC(C(O)C3CCCCC3)N(Nc3ccc([N+](=O)[O-])cc3)C2C(=O)N1c1ccccc1 (stereo not drawn) and report it. 0.959

Find the recorded composite z-score belonging to COC(=O)[C@@]1(Cc2ccc(F)cc2)[C@H]2c3cc(C(=O)N(C)C)n(Cc4ccc(S(C)(=O)=O)cc4)c3C[C@H]2CN1C(=O)c1ccccc1 and report it. 1.01

Find the recorded composite z-score belonging to CN1C(=O)C2C=CC(C(O)c3ccc(I)cc3)N(N3CCCCC3)C2C1=O (stereo not drawn) and report it. 0.924

Find the recorded composite z-score belonging to [N-]=[N+]=NCc1ccccc1[C@@H]1OC(c2ccc(OCCCO)cc2)=N[C@]1(Cc1ccccc1N=[N+]=[N-])C(=O)N1CCOCC1 and report it. 0.857

Find the recorded composite z-score belonging to CC(C)C(=C=CC[C@@H](O)c1ccccc1OCCO)CCO and report it. 0.442

Find the recorded composite z-score belonging to CC(C)N1C(=O)c2ccccc2[C@](C)(C(=O)NCc2ccccc2)[C@@H]1c1ccc(CO)cc1 and report it. -1.77

***
Find the recorded composite z-score belonging to C=CCNC(=O)[C@H]1[C@@H]2C(=O)O[C@@H](c3ccccc3)[C@@H](c3ccccc3)N2[C@@H](c2ccc(O)cc2)[C@]12C(=O)N(C(=O)OCCOC)c1ccc(C#CCNC(N)=O)cc12 and report it. 0.0703

Taken from PubChem BioAssay.
